Values compiled from paper PMC4336329.

Molecular target: human ether-à-go-go-related gene (hERG) potassium channel (human)
Sequence (Q12809 whole entry, looked up): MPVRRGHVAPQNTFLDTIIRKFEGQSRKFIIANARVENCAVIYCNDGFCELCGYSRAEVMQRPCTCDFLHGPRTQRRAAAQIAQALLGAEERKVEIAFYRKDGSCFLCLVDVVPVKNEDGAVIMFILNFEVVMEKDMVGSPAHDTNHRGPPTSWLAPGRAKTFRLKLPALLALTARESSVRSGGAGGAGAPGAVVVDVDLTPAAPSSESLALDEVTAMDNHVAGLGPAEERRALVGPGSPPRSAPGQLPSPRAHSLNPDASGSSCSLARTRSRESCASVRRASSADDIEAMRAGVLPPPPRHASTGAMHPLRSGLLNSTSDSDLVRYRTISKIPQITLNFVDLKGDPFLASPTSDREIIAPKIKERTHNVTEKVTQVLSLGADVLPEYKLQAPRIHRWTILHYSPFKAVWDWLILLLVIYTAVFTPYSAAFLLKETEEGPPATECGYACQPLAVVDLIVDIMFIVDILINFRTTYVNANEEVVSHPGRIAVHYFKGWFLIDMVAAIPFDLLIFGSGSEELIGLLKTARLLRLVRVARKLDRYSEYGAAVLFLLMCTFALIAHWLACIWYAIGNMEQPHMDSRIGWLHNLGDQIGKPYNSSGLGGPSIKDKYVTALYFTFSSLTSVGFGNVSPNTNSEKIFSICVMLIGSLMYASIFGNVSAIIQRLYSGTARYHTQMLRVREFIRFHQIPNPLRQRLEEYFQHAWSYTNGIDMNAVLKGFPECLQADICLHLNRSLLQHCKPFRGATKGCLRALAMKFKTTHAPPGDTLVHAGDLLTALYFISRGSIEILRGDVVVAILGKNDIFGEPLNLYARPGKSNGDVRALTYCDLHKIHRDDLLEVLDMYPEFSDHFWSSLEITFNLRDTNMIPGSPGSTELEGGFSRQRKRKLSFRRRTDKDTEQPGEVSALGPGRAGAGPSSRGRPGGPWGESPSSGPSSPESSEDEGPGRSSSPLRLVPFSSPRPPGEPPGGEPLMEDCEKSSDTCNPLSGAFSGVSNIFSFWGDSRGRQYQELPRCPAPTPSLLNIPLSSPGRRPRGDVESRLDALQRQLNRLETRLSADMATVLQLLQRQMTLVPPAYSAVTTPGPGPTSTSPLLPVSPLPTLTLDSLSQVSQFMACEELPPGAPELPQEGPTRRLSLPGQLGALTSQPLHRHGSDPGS
Experiment: primary screen, population patch clamp on CHO cells stably expressing hERG; higher = less effect of the substance
Out of some 310,000 compounds screened, about 2,200 (0.71%) showed an effect of 50% or more. Effects have a minus sign here. The list comes from a sample in which strong results are over-represented; it also holds close analogues and randomly drawn compounds.
observation-type: hERG current change (%, negative = inhibition) at 1uM (%)
Provide the reading as a plain figure in %.

compound	target-or-system	scale-unit	recorded-measurement
COc1cc2c(cc1OC)C(NC(=O)c1ccc(C)cc1)CC2=O (stereo not shown)	human ether-à-go-go-related gene (hERG) potassium channel (human)	%	7.58
Cc1ccc(N2CCN(c3ncccc3[N+](=O)[O-])CC2)c(C)c1	human ether-à-go-go-related gene (hERG) potassium channel (human)	%	17.2
C[n+]1c2n(c3ccccc31)N=C(c1ccc(Cl)cc1)CS2.[Br-]	human ether-à-go-go-related gene (hERG) potassium channel (human)	%	-51.9
Cc1ccc(-c2nnc3n2N=C(c2ccc(Br)cc2)CS3)cc1	human ether-à-go-go-related gene (hERG) potassium channel (human)	%	4.56
CCS(=O)(=O)c1ccc(O)c(NC(=O)COc2ccccc2)c1	human ether-à-go-go-related gene (hERG) potassium channel (human)	%	12.6

[in] Given the compound Cc1cc2nc3ccc(N(C)C)cc3nc2cc1N , what is its reported hERG current change (%, negative = inhibition) at 1uM?
[out] 13.3

[in] Next: COc1ccc(C2=Nn3c([n+](C)c4ccccc43)SC2)cc1.[Br-]
[out] -13.2
